Assay: AUClast in CD1 mouse plasma at 2 mg/kg, iv administered as single dose by LC-MS/MS analysis
Type: ADME, organism-based
Design: dose 2 mg/kg, route intravenous, time 0 - last
Listed compounds paired with reported AUC(0-t)

[
  {
    "Molecule": "O=C1c2c(O)c(=O)ccn2N([C@@H]2c3ccccc3SCc3c2ccc(F)c3F)[C@@H]2COCCN12",
    "Unit info": "ng·h/mL",
    "AUC(0-t)": 354
  },
  {
    "Molecule": "O=C1c2c(O)c(=O)ccn2N([C@@H](c2ccccc2)c2ccc(F)c(F)c2)[C@@H]2COCCN12",
    "Unit info": "ng·h/mL",
    "AUC(0-t)": 927
  },
  {
    "Molecule": "O=C1c2c(O)c(=O)ccn2N([C@H](c2ccccc2)c2ccc(F)c(F)c2)[C@@H]2COCCN12",
    "Unit info": "ng·h/mL",
    "AUC(0-t)": 2210
  },
  {
    "Molecule": "O=C1c2c(O)c(=O)ccn2N(C(c2ccccc2)c2ccccc2)[C@@H]2COCCN12",
    "Unit info": "ng·h/mL",
    "AUC(0-t)": 844
  },
  {
    "Molecule": "O=C1c2c(O)c(=O)ccn2N(C(c2ccc(F)cc2)c2ccc(F)cc2)[C@@H]2COCCN12",
    "Unit info": "ng·h/mL",
    "AUC(0-t)": 1070
  }
]

###

Parameter Kp: see the listing below.
Assay: Ratio of Cmax in CD1 mouse lung to plasma at 10 mg/kg, po administered as single dose by LC-MS/MS analysis
Type: ADME, organism-based
Details: lung and plasma

[
  {
    "Molecule": "O=C1c2c(O)c(=O)ccn2N([C@@H](c2ccccc2)c2ccc(F)c(F)c2)[C@@H]2COCCN12",
    "Kp": 1.5
  },
  {
    "Molecule": "O=C1c2c(O)c(=O)ccn2N(C(c2ccccc2)c2ccccc2)[C@@H]2COCCN12",
    "Kp": 2.2
  },
  {
    "Molecule": "O=C1c2c(O)c(=O)ccn2N(C(c2ccc(F)cc2)c2ccc(F)cc2)[C@@H]2COCCN12",
    "Kp": 3
  },
  {
    "Molecule": "O=C1c2c(O)c(=O)ccn2N([C@H](c2ccccc2)c2ccc(F)c(F)c2)[C@@H]2COCCN12",
    "Kp": 2.3
  }
]

###

Experiment: Cytotoxicity against MDCK cells assessed as reduction in cell viability by ATP bioluminescence assay
Assay type: cell-based, Canis lupus familiaris
Conditions: dog

[
  {
    "Molecule": "O=C1c2c(O)c(=O)ccn2N(C(c2ccccc2)c2ccccc2)[C@@H]2COCCN12",
    "CC50 (µM)": 5.8
  }
]

###

Kp values by entry
Assay: Ratio of AUClast in CD1 mouse lung to plasma at 10 mg/kg, po administered as single dose by LC-MS/MS analysis
Format: ADME, organism-based
Conditions: lung and plasma, read-out: Ratio AUC
Metric name: Kp

[
  {
    "Molecule": "O=C1c2c(O)c(=O)ccn2N(C(c2ccccc2)c2ccccc2)[C@@H]2COCCN12",
    "Obs value": 3.1
  },
  {
    "Molecule": "O=C1c2c(O)c(=O)ccn2N([C@H](c2ccccc2)c2ccc(F)c(F)c2)[C@@H]2COCCN12",
    "Obs value": 1.3
  },
  {
    "Molecule": "O=C1c2c(O)c(=O)ccn2N([C@@H](c2ccccc2)c2ccc(F)c(F)c2)[C@@H]2COCCN12",
    "Obs value": 0.9
  },
  {
    "Molecule": "O=C1c2c(O)c(=O)ccn2N(C(c2ccc(F)cc2)c2ccc(F)cc2)[C@@H]2COCCN12",
    "Obs value": 2.5
  }
]

###

Molecular target: dopamine transporter (sodium-dependent dopamine transporter) (Homo sapiens, UniProt Q01959)
Sequence (Q01959 whole entry): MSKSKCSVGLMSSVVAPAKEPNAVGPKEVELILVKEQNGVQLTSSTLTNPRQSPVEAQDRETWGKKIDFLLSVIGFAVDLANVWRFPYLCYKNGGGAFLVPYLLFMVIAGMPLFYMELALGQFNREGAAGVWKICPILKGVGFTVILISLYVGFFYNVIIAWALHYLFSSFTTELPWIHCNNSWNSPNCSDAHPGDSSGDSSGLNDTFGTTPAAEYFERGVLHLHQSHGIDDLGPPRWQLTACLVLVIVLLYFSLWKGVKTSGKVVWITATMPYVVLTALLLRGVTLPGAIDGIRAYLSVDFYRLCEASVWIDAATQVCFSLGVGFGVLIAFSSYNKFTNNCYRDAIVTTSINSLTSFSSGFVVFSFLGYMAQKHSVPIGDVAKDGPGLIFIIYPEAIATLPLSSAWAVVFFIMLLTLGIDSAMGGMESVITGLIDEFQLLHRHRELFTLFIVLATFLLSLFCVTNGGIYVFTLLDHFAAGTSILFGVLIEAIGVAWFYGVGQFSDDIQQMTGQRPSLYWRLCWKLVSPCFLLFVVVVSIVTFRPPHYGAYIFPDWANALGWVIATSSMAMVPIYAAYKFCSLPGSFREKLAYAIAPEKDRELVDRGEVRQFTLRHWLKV
Assay: Binding affinity to human dopamine transporter at 10 uM relative to control
Format: ADME
Details: read-out: Activity
Metric name: activity at 10 µM (%)

[
  {
    "Molecule": "O=C1c2c(O)c(=O)ccn2N(C(c2ccccc2)c2ccccc2)[C@@H]2COCCN12",
    "Metric name": "activity at 10 µM",
    "Obs value": 71.7
  }
]

###

Test: Stability in rat liver S9 fraction assessed as parent compound remaining at 1 uM measured after 4 hrs by LC-MS/MS analysis
Format: ADME, subcellular
Settings: read-out: Stability
Catalogue of remaining at 4 h, 1 µM values

[
  {
    "Molecule": "O=C1c2c(O)c(=O)ccn2N(C(c2ccc(F)cc2)c2ccc(F)cc2)[C@@H]2COCCN12",
    "Unit info": "%",
    "remaining at 4 h, 1 µM": 98.3
  },
  {
    "Molecule": "O=C1c2c(O)c(=O)ccn2N(C(c2ccccc2)c2ccccc2)[C@@H]2COCCN12",
    "Unit info": "%",
    "remaining at 4 h, 1 µM": 79
  },
  {
    "Molecule": "O=C1c2c(O)c(=O)ccn2N([C@@H]2c3ccccc3SCc3c2ccc(F)c3F)[C@@H]2COCCN12",
    "Unit info": "%",
    "remaining at 4 h, 1 µM": 85
  },
  {
    "Molecule": "O=C1c2c(O)c(=O)ccn2N([C@H](c2ccccc2)c2ccc(F)c(F)c2)[C@@H]2COCCN12",
    "Unit info": "%",
    "remaining at 4 h, 1 µM": 95.4
  },
  {
    "Molecule": "O=c1ccc2ccc(O)cc2o1",
    "Unit info": "%",
    "remaining at 4 h, 1 µM": 2.74
  },
  {
    "Molecule": "O=C1c2c(O)c(=O)ccn2N([C@@H](c2ccccc2)c2ccc(F)c(F)c2)[C@@H]2COCCN12",
    "Unit info": "%",
    "remaining at 4 h, 1 µM": 99.6
  }
]

###

Reported values of remaining at 4 h, 1 µM for individual entries
Assay: Stability in simulated intestinal fluid assessed as parent compound remaining at 1 uM measured after 4 hrs at pH 1.2 by LC-MS/MS analysis
Assay type: physicochemical
Settings: read-out: Stability
Metric name: remaining at 4 h, 1 µM (%)

[
  {
    "Molecule": "COC(=O)OCOc1c2n(ccc1=O)N(C(c1ccccc1)c1ccccc1)[C@@H]1COCCN1C2=O",
    "Unit info": "%",
    "Obs value": 93.7
  },
  {
    "Molecule": "O=C(O)CCCc1ccc(N(CCCl)CCCl)cc1",
    "Unit info": "%",
    "Obs value": 0.04
  },
  {
    "Molecule": "COC(=O)OCOc1c2n(ccc1=O)N([C@@H](c1ccccc1)c1ccc(F)c(F)c1)[C@@H]1COCCN1C2=O",
    "Unit info": "%",
    "Obs value": 95.8
  }
]

###

Assay: Selectivity ratio of CC50 for human HepG2 cells assessed as reduction in cell viability measured after 24 hrs in presence of glucose to CC50 for human HepG2 cells assessed as reduction in cell viability measured after 24 hrs in presence of galactose
Assay type: cell-based

[
  {
    "Molecule": "O=C1c2c(O)c(=O)ccn2N(C(c2ccccc2)c2ccccc2)[C@@H]2COCCN12",
    "selectivity ratio at 24 h": 1.1
  },
  {
    "Molecule": "COC(=O)OCOc1c2n(ccc1=O)N(C(c1ccccc1)c1ccccc1)[C@@H]1COCCN1C2=O",
    "selectivity ratio at 24 h": 0.9
  }
]

###

Experiment: Selectivity index, ratio of CC50 for MDCK cells to EC50 for Influenza A/California/04/2009 (H1N1)pdm09 virus infected in MDCK cells
Assay type: toxicity, cell-based
Settings: dog, read-out: Ratio CC50/EC50
selectivity ratio reference
Metric name: selectivity ratio

[
  {
    "Molecule": "CSc1ccccc1[C@H](c1ccc(F)c(F)c1)N1[C@@H]2COCCN2C(=O)c2c(O)c(=O)ccn21",
    "Result comparator": "=",
    "Obs value": 511
  },
  {
    "Molecule": "CSc1ccccc1[C@@H](c1ccc(F)c(F)c1)N1[C@@H]2COCCN2C(=O)c2c(O)c(=O)ccn21",
    "Result comparator": "=",
    "Obs value": 67
  },
  {
    "Molecule": "O=C1c2c(O)c(=O)ccn2N(C(c2ccc(F)c(F)c2)c2ccc(F)c(F)c2)[C@@H]2COCCN12",
    "Result comparator": "=",
    "Obs value": 611
  },
  {
    "Molecule": "O=C1c2c(O)c(=O)ccn2N([C@@H]2c3ccccc3SCc3c2ccc(F)c3F)[C@@H]2COCCN12",
    "Result comparator": ">",
    "Obs value": 1000
  },
  {
    "Molecule": "O=C1c2c(O)c(=O)ccn2N(C(c2ccccc2)c2ccccc2)[C@@H]2COCCN12",
    "Result comparator": "=",
    "Obs value": 654
  },
  {
    "Molecule": "O=C1c2c(O)c(=O)ccn2N([C@H](c2ccccc2)c2ccc(F)c(F)c2)[C@@H]2COCCN12",
    "Result comparator": ">",
    "Obs value": 1000
  },
  {
    "Molecule": "O=C1c2c(O)c(=O)ccn2N([C@@H](c2ccccc2)c2ccc(F)c(F)c2)[C@@H]2COCCN12",
    "Result comparator": "=",
    "Obs value": 538
  },
  {
    "Molecule": "O=C1c2c(O)c(=O)ccn2N(C(c2ccc(F)cc2)c2ccc(F)cc2)[C@@H]2COCCN12",
    "Result comparator": "=",
    "Obs value": 993
  }
]
